condition_info: in DMF, 303.15 K
experimental_readout: solubility (mole fraction)
# respond with the number and nothing more

Can you share its solubility (mole fraction)? I mean this compound: N#CNC(=N)N
0.243

* * *

condition_info: in methanol, 298.15 K
experimental_readout: solubility (mole fraction)
Lab note: jot the number down without any unit.

Which solubility (mole fraction) reading was recorded for the molecule N#CNC(=N)N ?
0.0231

* * *

condition_info: in DMF, 293.15 K
experimental_readout: solubility (mole fraction)
Please reply with the number alone, leaving off any unit.

Could you share which solubility (mole fraction) value was measured for N#CNC(=N)N ?
0.215

* * *

condition_info: in ethylene glycol, 298.15 K
experimental_readout: solubility (mole fraction)
// return a plain number; no unit text

Bench note: what solubility (mole fraction) did N#CNC(=N)N show?
0.048

* * *

condition_info: in water, 323.15 K
experimental_readout: solubility (mole fraction)
Answer with a number only.

Consider the compound shown here: N#CNC(=N)N What is its recorded solubility (mole fraction)?
0.0265

* * *

condition_info: in DMF, 288.15 K
experimental_readout: solubility (mole fraction)

Could you tell me which solubility (mole fraction) is on file for N#CNC(=N)N ?
0.205

* * *

condition_info: in ethanol, 288.15 K
experimental_readout: solubility (mole fraction)

Param item = N#CNC(=N)N ; retrieve measured solubility (mole fraction).
0.00449
